Overview of reported cell growth across a group of compounds:
System: OVCAR-3-derived ovarian cancer stem-like cells (spheroids)
Test: cell growth relative to untreated control; higher = more growth (less inhibition)
Settings: 2.29 µM; 96 h
attribute measured: cell growth (%)

1) OC[C@H]1O[C@@H](n2cnc3cncnc32)[C@H](O)[C@@H]1O    10.4
2) NC(=O)NO    107
3) CC(=O)c1sc2[n+](c1C)C(=O)/C(=C\c1ccccc1Cl)S2    99.4
4) CCn1c(O)c(C=Nc2ccccc2)s/c1=N/Nc1ncc(CC(=O)Nc2ccccc2C)s1    95.9
5) CC(=O)NCCCCCCNC(C)=O    119
6) O=S(=O)(O)c1cc(N=Nc2cc(S(=O)(=O)O)c3ccccc3c2O)ccc1/C=C/c1ccc(N=Nc2cc(S(=O)(=O)O)c3ccccc3c2O)cc1S(=O)(=O)O    110
7) CCCCCCCCCc1c(Cl)nc(Cl)nc1Cl    113
8) Cc1cc(NC(=O)NC(=O)c2ccccc2NC(=O)CN)ccc1Oc1ncc(Br)cn1    49.8
9) NC(=O)C#CC(N)=O    55.9
10) NCCCNCCCCNCCCN    141
11) N#CC1(C#N)C2C=CC(c3coc4cccc2c34)C1(C#N)C#N (centres undefined)    20.9
12) O=C(CC(=O)c1ccccc1)CC(O)(c1ccccc1)c1ccccc1    124
13) O=C1Cc2c([nH]c3ccc(Br)cc23)-c2ccccc2N1    109
14) N[C@H](C(=O)O)[C@H]1ON=C(Cl)[C@H]1O    91.4

# credit: the supplement of paper PMC3484114
